Biological target: GlyT1 (Homo sapiens, UniProt P48067)
Construct: expressed in transfected cells
Sequence (P48067 whole entry): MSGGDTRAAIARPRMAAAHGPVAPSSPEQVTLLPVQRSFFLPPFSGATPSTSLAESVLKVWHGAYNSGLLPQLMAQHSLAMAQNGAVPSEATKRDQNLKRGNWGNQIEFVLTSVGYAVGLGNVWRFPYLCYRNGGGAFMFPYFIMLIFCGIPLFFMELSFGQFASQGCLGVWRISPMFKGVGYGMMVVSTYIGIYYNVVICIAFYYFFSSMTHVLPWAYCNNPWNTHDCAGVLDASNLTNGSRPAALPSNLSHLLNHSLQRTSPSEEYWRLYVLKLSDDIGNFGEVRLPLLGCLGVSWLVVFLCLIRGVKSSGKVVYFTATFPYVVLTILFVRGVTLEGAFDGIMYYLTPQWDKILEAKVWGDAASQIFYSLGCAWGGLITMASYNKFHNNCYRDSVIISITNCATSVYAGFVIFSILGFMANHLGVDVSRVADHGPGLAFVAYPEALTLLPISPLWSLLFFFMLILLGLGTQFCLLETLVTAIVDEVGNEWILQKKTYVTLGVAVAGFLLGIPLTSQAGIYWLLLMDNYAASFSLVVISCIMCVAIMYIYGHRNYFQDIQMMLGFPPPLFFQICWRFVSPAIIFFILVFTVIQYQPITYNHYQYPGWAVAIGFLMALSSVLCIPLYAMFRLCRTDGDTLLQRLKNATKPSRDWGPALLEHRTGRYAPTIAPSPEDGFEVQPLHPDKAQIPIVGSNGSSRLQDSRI
Test: Glycine Transporter 1 (GlyT1) uptake assay, scintillation proximity assay of [14C]-glycine uptake
Assay type: cell-based
Conditions: SPA, four parameter logistic fit, read-out: GlyT1 (pIC50) (converted)
Experimental: Glycine Transporter 1 (GlyT1) Uptake Assay Plates were then read on a MicroBeta plate counter (Perkin Elmer). Dose-response data for tested compounds were analyzed and curves were fit using a four parameter logistic fit to determine IC50 values. […]
Catalogue of compounds with associated IC50

input: Tell me IC50 reported for CC(Oc1ccc(S(C)(=O)=O)cc1C(=O)N1CCc2c(cnn2C)C1)C(F)(F)F (stereo not shown) [Example 161]
output: 1000 to 10000 nM

input: Tell me IC50 reported for C[C@H](Oc1ccc(S(C)(=O)=O)cc1C(=O)N1Cc2cn(CC3CCCC3)nc2C1)C(F)(F)F [Example 413]
output: < 100 nM

input: Tell me IC50 reported for COc1c(C#N)ccc(OC(C)C(F)(F)F)c1C(=O)N1CCc2nn(-c3ccc(F)cc3F)cc2C1 (stereo not shown) [Example 194]
output: 100 to 1000 nM
